Recorded values, source ChEMBL document CHEMBL4808208.

molecular target: Cytochrome P450 3A4 (Homo sapiens, UniProt P08684); assay: Inhibition of CYP3A4 in human liver microsomes using midazolam as substrate preincubated for 5 mins followed by NADPH addition by LC-MS/MS analysis; assay type: ADME
Sequence (P08684 whole entry): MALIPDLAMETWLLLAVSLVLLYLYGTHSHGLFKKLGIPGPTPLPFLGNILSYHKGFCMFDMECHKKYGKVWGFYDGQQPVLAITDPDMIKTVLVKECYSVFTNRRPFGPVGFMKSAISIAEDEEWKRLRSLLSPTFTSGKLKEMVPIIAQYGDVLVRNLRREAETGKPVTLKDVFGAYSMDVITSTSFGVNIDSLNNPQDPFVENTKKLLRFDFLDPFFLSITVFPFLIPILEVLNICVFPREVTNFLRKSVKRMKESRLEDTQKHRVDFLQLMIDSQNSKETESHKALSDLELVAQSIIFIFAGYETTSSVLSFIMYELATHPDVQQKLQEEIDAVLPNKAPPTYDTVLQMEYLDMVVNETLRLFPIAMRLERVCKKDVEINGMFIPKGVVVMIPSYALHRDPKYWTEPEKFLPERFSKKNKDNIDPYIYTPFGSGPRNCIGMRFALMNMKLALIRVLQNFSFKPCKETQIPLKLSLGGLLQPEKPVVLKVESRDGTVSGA
Measurement Label: IC50

Consider COc1cc2c(cc1OCCCCCCC(=O)O)C[C@@H](C(C)C)n1cc(C(=O)O)c(=O)cc1-2 . Its measured IC50 is > 10 µM

###

assay: Metabolic stability in mouse liver microsomes assessed as half life preincubated with compound for 10 mins followed by NADPH regenerating system addition and measured for 60 mins by LC/MS-MS analysis; format: ADME, Microsome; details: time 70 min
Measurement Label: half-life (h)
Give just the numeric value; h need not be written.

Consider COc1cc2c(cc1OCCCCCCC(=O)O)C[C@@H](C(C)C)n1cc(C(=O)O)c(=O)cc1-2 . Its measured half-life is 28.9
